Could you please report measured SPOT peptide array binding signal intensity for the items listed next?
- System under test: AgSla1-D3
- Experiment summary: SPOT peptide array binding signal intensity (averaged, normalized) (arbitrary units (background-subtracted, floor 0; scale differs between SH3 domains)); higher = stronger binding of the SH3 domain to the peptide

Worked cases, SPOT peptide array binding signal intensity given:
1) NMLKKKPLKKPLKRF; 10
2) NPNRRAPRRPLSTQH; 18
3) LKHGWKPLRPIKLIS; 3.5
4) KKAPPPVVKPKPRNF; 32.5
5) RPVPRRPSQPLNTLS; 7.12
6) AGKRRLPLVRFKASD; 11.8

Proceeding to the next binder to report its SPOT peptide array binding signal intensity.
What value of SPOT peptide array binding signal intensity has been reported for the following binder? "QPPLPSSAPPIPTSH"
≤ 0
